Please go through the items and note down their pIC50.
- systemTested: human PD-L1 (Homo sapiens (Human), UniProt Q9NZQ7)
- Sequence (Q9NZQ7 19-239): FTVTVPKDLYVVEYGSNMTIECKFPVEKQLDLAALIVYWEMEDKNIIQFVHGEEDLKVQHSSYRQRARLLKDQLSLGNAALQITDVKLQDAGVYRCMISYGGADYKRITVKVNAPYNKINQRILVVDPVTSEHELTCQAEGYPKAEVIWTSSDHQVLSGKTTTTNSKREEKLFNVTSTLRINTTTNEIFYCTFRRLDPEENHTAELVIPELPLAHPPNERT
- protocolDescription: Enzyme-Linked Immunosorbent Assay (ELISA), PD-1/PD-L1 binding
- testSettings: plate-coated human PD-L1, biotinylated Human PD-1, absorbance at 450 nm
pIC50: −log10 of the molar value.

The following compounds have reported results that may help.
{"compoundStructure": "COc1cc(-c2cccc(-c3cccc(NC(=O)c4cn(C)c(=O)n(C)c4=O)c3C)c2Cl)cnc1CN[C@@H]1CCOC[C@@H]1O", "reading": "> 8.00"}
{"compoundStructure": "COc1cc(-c2cccc(-c3cccc(NC(=O)c4cn(C)c(=O)n(C)c4=O)c3C)c2Cl)cc(F)c1CN[C@H]1CNC(=O)C1", "reading": "> 8.00"}

Reported pIC50 of COc1cc(-c2cccc(-c3cccc(NC(=O)c4c[nH]c(=O)n(C)c4=O)c3Cl)c2Cl)cc(F)c1CN[C@@H]1CCOC[C@@H]1O : > 8.00

====

- systemTested: human PD-L1 (Homo sapiens (Human), UniProt Q9NZQ7)
- protocolDescription: Enzyme-Linked Immunosorbent Assay (ELISA), PD-1/PD-L1 binding
- testSettings: PD-1/PD-L1 ELISA, human PD-L1 coated plates, Table 1
quantityKind: IC50

Consider the worked cases shown below.
{"compound": "COc1cc(-c2cccc(-c3cccc(NC(=O)c4cccnc4O)c3C)c2C)cc(F)c1CN [Example 1.297]", "IC50": "10 to 1000 nM"}
{"compound": "COc1cc(-c2cccc(-c3cccc(NC(=O)c4ccc(CC(N)=O)cn4)c3C)c2C)cc(F)c1CN [Example 1.310]", "IC50": "< 10 nM"}
{"compound": "COc1cc(-c2cccc(-c3cccc(NC(=O)c4c[nH]c(=O)n(C)c4=O)c3C)c2C)cc(F)c1CN[C@@H](C)CO [Example 1.226]", "IC50": "< 10 nM"}
{"compound": "COc1cc(-c2cccc(-c3cccc(NC(=O)c4ccccn4)c3C)c2F)cc(F)c1CN1CC(C(=O)O)C1 [Example 1.348]", "IC50": "10 to 1000 nM"}
{"compound": "COc1cc(-c2cccc(-c3cccc(NC(=O)c4ccc(C(=O)NCC(=O)O)cn4)c3C)c2C)cc(F)c1CN [Example 1.305]", "IC50": "< 10 nM"}

Value sought for every listed compound: IC50.
1. COc1cc(-c2cccc(-c3cccc(NC(=O)c4ccc(C(=O)NCCO)cn4)c3C)c2C)cc(F)c1CN1CC(C(=O)O)C1 [Example 1.285]
2. COc1cc(-c2cccc(-c3cccc(NC(=O)c4ccnc(N)c4)c3C)c2C)cc(F)c1CNCCO [Example 1.389]

Return:
1: < 10 nM; 2: 1000 to 10000 nM

====

- systemTested: human PD-L1 (Homo sapiens (Human), UniProt Q9NZQ7)
- protocolDescription: Enzyme-Linked Immunosorbent Assay (ELISA), PD-1/PD-L1 binding
- testSettings: PD-1/PD-L1 ELISA, human PD-L1 coated plates, Table 1
pIC50: −log10 of the molar value.
quantityKind: pIC50

Below: 8 molecules and their reported pIC50.
{"molecule": "COc1cc(-c2cccc(-c3cccc(Nc4cccc5nccnc45)c3C)c2C)cc(F)c1CN1CC(C(=O)O)C1", "pIC50": "6.00 to 8.00"}
{"molecule": "COc1cc(-c2cccc(-c3cccc(NC(=O)c4ccnc(C)n4)c3C)c2C)cc(F)c1CN1CC(C(=O)O)C1", "pIC50": "> 8.00"}
{"molecule": "COc1cc(-c2cccc(-c3cccc(NC(=O)c4ccccn4)c3C)c2C)cc(F)c1C(C)N (centres unmarked)", "pIC50": "6.00 to 8.00"}
{"molecule": "COc1cc(-c2cccc(-c3cccc(NC(=O)c4cccn(C)c4=O)c3C)c2C)cc(F)c1CNCC(C)(C)O", "pIC50": "> 8.00"}
{"molecule": "COc1cc(-c2cccc(-c3cccc(NC(=O)c4c[nH]c(=O)n(C)c4=O)c3C)c2C)cc(F)c1CN1CC(C(=O)O)C1", "pIC50": "> 8.00"}
{"molecule": "COc1cc(-c2cccc(-c3cccc(Nc4nccc5cccnc45)c3C)c2C)cc(F)c1CN1CC(C(=O)O)C1", "pIC50": "6.00 to 8.00"}
{"molecule": "COc1cc(-c2cccc(-c3cccc(Nc4nccc5nccnc45)c3C)c2C)cc(F)c1CNCCO", "pIC50": "> 8.00"}
{"molecule": "COc1cc(-c2cccc(-c3cccc(NC(=O)c4cccn(C)c4=O)c3C)c2C)cc(F)c1CN", "pIC50": "> 8.00"}

Give pIC50 for each listed item.
1. COC(=O)c1ccc(C(=O)Nc2cccc(-c3cccc(-c4cc(F)c(CN)c(OC)c4)c3C)c2C)nc1
2. COc1cc(-c2cccc(-c3cccc(NC(=O)c4c[nH]c(=O)n(C)c4=O)c3C)c2C)cc(F)c1CN(C)CC(N)=O
3. COc1cc(-c2cccc(-c3cccc(NC(=O)c4cncc(N)n4)c3C)c2C)cc(F)c1CN1CC(C(=O)O)C1
4. COc1cc(-c2cccc(-c3cccc(NC(=O)c4ncco4)c3C)c2C)cc(F)c1CN1CC(C(=O)O)C1
5. COc1cc(-c2cccc(-c3cccc(NC(=O)c4ccccn4)c3C)c2C)cc(F)c1CN1CCC[C@H](C(=O)O)C1
6. COc1cc(-c2cccc(-c3cccc(Nc4nccc5ccccc45)c3C)c2C)cc(F)c1CN1CC(C(=O)O)C1

Return:
1: 6.00 to 8.00; 2: 6.00 to 8.00; 3: > 8.00; 4: 6.00 to 8.00; 5: 6.00 to 8.00; 6: 5.00 to 6.00

====

Record form. Attribute: pIC50. Fill in for each entry.
- systemTested: human PD-L1 (Homo sapiens (Human))
- protocolDescription: Enzyme-Linked Immunosorbent Assay (ELISA), PD-1/PD-L1 binding
- testSettings: PD-1/PD-L1 ELISA, human PD-L1 coated plates, Table 1
pIC50: −log10 of the molar value.

Observe how each entry below is paired with its result.
{"compound": "COc1cc(-c2cccc(-c3cccc(NC(=O)c4ccccn4)c3C)c2C)cc(F)c1CN1CC[C@H](C(=O)O)C1 [Example 1.368]", "reading": "6.00 to 8.00"}
{"compound": "COc1cc(-c2cccc(-c3cccc(NC(=O)c4c[nH]c(=O)n(C)c4=O)c3C)c2C)cc(F)c1CN1CC2(C1)NC(=O)NC2=O [Example 1.242]", "reading": "6.00 to 8.00"}

In the following, a different compound is considered.
Record COc1cc(-c2cccc(-c3cccc(NC(=O)c4c[nH]c(=O)n(C)c4=O)c3C)c2C)cc(F)c1CNCC(=O)O [Example 1.261] . Reported pIC50: > 8.00

====

- systemTested: UniProt:Q9NZQ7
- protocolDescription: Enzyme-Linked Immunosorbent Assay (ELISA), PD-1/PD-L1 binding
- testSettings: human PD-1/PD-L1 ELISA, plates coated with human PD-L1
So I've got a bunch of compounds here, and I need their IC50 values.

{"compound": "COc1cc(-c2cccc(-c3cccc(NC(=O)c4nn(C)c(=O)n(C)c4=O)c3C)c2C)cc(F)c1CNC[C@@H]1CCC(=O)N1C", "IC50": "< 10 nM"}

For each of the items listed, what is its IC50?
1. COc1cc(-c2cccc(-c3cccc(NC(=O)c4nn(C)c(=O)n(C)c4=O)c3C)c2C)cc(F)c1CNC1CCNC(=O)C1 (stereo not drawn)
2. COc1cc(-c2cccc(-c3cccc(NC(=O)c4cn(C)c(=O)n(C)c4=O)c3C)c2C)cc(F)c1CNC1CCOC1 (stereo not drawn)

Return:
1: < 10 nM; 2: < 10 nM

====

- systemTested: UniProt:Q9NZQ7
- protocolDescription: Enzyme-Linked Immunosorbent Assay (ELISA), PD-1/PD-L1 binding
- testSettings: plate-coated human PD-L1, biotinylated Human PD-1, absorbance at 450 nm
quantityKind: IC50

// known answers, use as guide
{"compound": "COc1cc(-c2cccc(-c3cccc(NC(=O)c4cn(C)c(=O)n(C)c4=O)c3C)c2Cl)cc(F)c1CNC(C)(C)C(N)=O [Example 2.085]", "quantityKind": "IC50", "reading": "10 to 1000 nM"}
{"compound": "COc1cc(-c2cccc(-c3cccc(NC(=O)c4cn(C)c(=O)n(C)c4=O)c3C)c2F)cc(F)c1CN[C@@H]1CCOC[C@H]1O [Example 2.099]", "quantityKind": "IC50", "reading": "< 10 nM"}
{"compound": "COc1cc(-c2cccc(-c3cccc(NC(=O)c4cn(C)c(=O)n(C)c4=O)c3C)c2Cl)cc(F)c1CN1CCCC[C@H]1C(=O)O [Example 2.047]", "quantityKind": "IC50", "reading": "< 10 nM"}
{"compound": "COc1cc(-c2cccc(-c3cccc(NC(=O)c4c[nH]c(=O)n(C)c4=O)c3C)c2Cl)cc(F)c1CN[C@H]1CCC(=O)NC1 [Example 2.032]", "quantityKind": "IC50", "reading": "< 10 nM"}
{"compound": "COc1cc(-c2cccc(-c3cccc(NC(=O)c4cn(C)c(=O)n(C)c4=O)c3C)c2Cl)cc(F)c1CN[C@H]1CCOC[C@@H]1O [Example 2.089]", "quantityKind": "IC50", "reading": "< 10 nM"}

Answer for every listed entry: what is its IC50? The entries follow.
1. COc1cc(-c2cccc(-c3cccc(NC(=O)c4cn(C)c(=O)n(C)c4=O)c3Cl)c2Cl)cc(F)c1CN1CCC(C)(C(=O)O)CC1 [Example 2.005]
2. COc1cc(-c2cccc(-c3cccc(NC(=O)c4cn(C)c(=O)n(C)c4=O)c3Cl)c2Cl)cc(F)c1CN[C@H]1COC[C@H]1O [Example 2.074]
3. CCOc1cc(-c2cccc(-c3cccc(NC(=O)c4cn(C)c(=O)n(C)c4=O)c3C)c2Cl)cc(F)c1CN[C@@H]1CCOC[C@@H]1O [Example 2.039]
4. COc1cc(-c2cccc(-c3cccc(NC(=O)c4cn(C)c(=O)n(C)c4=O)c3Cl)c2F)cc(F)c1CNC[C@@H]1CCC(=O)N1 [Example 2.079]
5. COc1cc(-c2cccc(-c3cccc(NC(=O)c4cn(C)c(=O)n(C)c4=O)c3C)c2Cl)cc(F)c1CNC1CCOCC1 [Example 2.083]

Return:
1: < 10 nM; 2: < 10 nM; 3: < 10 nM; 4: < 10 nM; 5: < 10 nM
